test system: MDA-MB-435; assay: NCI tumour cell line growth inhibition, 48 h
Measured TGI by item
measurement name: TGI (µM)

1) COc1cc(C(C)(C)C)c(OC(=O)/C=C/C(=O)O/C=C/[N+](=O)[O-])c(C(C)(C)C)c1; 58.1
2) Brc1ccc2c(c1)[C@H]1CCc3c([nH]c4ccccc34)[C@H]1N2; 26.2
3) COC(=O)/C=C1\C(=O)N(C(C)=O)c2ccccc21; 32.2
4) COc1c(Cl)ccc(Cl)c1-c1nnc(-c2c(Cl)c(Cl)c(Cl)c(Cl)c2-c2nc3ccc(C(=O)c4ccccc4)cc3[nH]2)o1; 68

* * *

system: HS 578T breast; test: NCI tumour cell line growth inhibition, 48 h; in the data active = GI50 below about 0.43 µM; inactive = the rest
Where a SMILES comes first, the peptide text is derived from it. [ ]: non-standard residue; d: D form. The star is where a group is joined. ξ: configuration not given here. 4Abz = Nc1ccc(C(=O)O)cc1; ξL = CC(C)CC(N)C(=O)O; NHOH = ON*
Outcome codes: 1 = active, -1 = inactive

1. CC(=N\O)/C(C)=N/O.CC(=N\O)/C(C)=N/O.[Pd]; -1
2. COc1ccc(C2CC(c3cccc(Nc4ccnc5cc(Cl)ccc45)c3)=NN2c2ccccc2)cc1 (centres undefined); -1
3. CC(C)CC(NC(=O)[C@@H]1CCCN1C(=O)CNC(=O)c1ccc(N)cc1)C(=O)N[C@H](C)C(=O)NO (some centres undefined) (H-[4Abz]GP[ξL][dA]-{NHOH}); -1
4. NS(=O)(=O)OC[C@H]1O[C@@H](n2cnc3c(N[C@H]4CCc5ccccc54)ncnc32)[C@H](O)[C@@H]1O; -1
5. COc1ccc(-n2cc(-c3ccc(Cl)cc3)[nH]c2=S)cc1Cl; -1
6. COc1cccc(-n2cnc3c(N/N=C/c4ccncc4)ncnc32)c1; -1
7. Cc1c(Br)cccc1NC(=O)c1sc2nc3c(cc2c1N)CN(Cc1ccccc1)CC3; 1
8. CCSc1sc(-c2ccc(C)cc2)nc1[P+](c1ccccc1)(c1ccccc1)c1ccccc1; 1
9. C=C1c2c(C)nn(-c3ccccc3)c2N(C)C23C[C@@H]1C1(C)c4c(C)nn(-c5ccccc5)c4N(C)C(C)(C[C@H]12)C3 (some centres undefined); -1

* * *

test system: HOP-62 NSCLC; experiment: NCI tumour cell line growth inhibition, 48 h
# TGI per entry
measurement name: TGI (µM)

1. CC([C@H]1CCC2C3CCC4C(=O)C(NC=O)=CC[C@]4(C)C3CC[C@@]21C)N(C)C (stereo not given in full); 4.56
2. O=C1c2cc(Br)ccc2-c2c1c1ccccc1c(=O)n2CCCCl; 17.8
3. CCCCCCCC(=O)SCC/C=C/[C@@H]1CC(=O)NCc2cccc(n2)CN(Cc2ccc(Cl)cc2)CC(=O)N[C@@H](C(C)C)C(=O)O1; 44.4
4. COC(=O)C1=C(O)C(C(=O)OC)[C@@]2(O)[C@@H](C(=O)OC)C(c3ccccc3C(F)(F)F)C[C@@H]1[C@@H]2C(=O)OC (stereo not given in full); 36.4
5. N=C(N)c1ccc(-c2ccc(-c3ccco3)o2)cc1; 23
6. CSc1nc(NC2CC2)c2c(n1)Sc1nc3ccccc3n1N=C2; 39.6
7. O=C(NC12CC3CC(CC(C3)C1)C2)n1cnc2cncnc21; 51.5
8. O=C1/C(=C/c2ccc(F)cc2)CN(Cc2cn(CCNc3ccnc4cc(Cl)ccc34)nn2)C/C1=C\c1ccc(F)cc1; 3.76
9. O=c1[nH]/c(=C/c2cccs2)c(=O)[nH]/c1=C/c1ccc(OCc2ccccc2)cn1; 8.47
